test system: MOLM-14; assay: Antiproliferative activity against human MOLM-14 cells harboring FLT3-D835Y mutant assessed as inhibition of cell growth incubated for 72 hrs by resazurin dye based assay; type: functional; settings: MOLM-14, 72 h
pIC50: −log10 of the molar value.
readoutKind: pIC50

1) Cc1ccc(-n2nc(C(C)(C)C)cc2Nc2cccc(-c3cnc4cc(-c5ccc(S(C)(=O)=O)cc5)ccn34)n2)cc1
6.21
2) Cn1cc(-c2ccn3c(-c4cccc(Nc5ccc(N6CCOCC6)cc5)n4)cnc3c2)cn1
8.85
3) Cn1cc(-c2ccn3c(-c4cccc(Nc5cc(C(C)(C)C)nn5C)n4)cnc3c2)cn1
8.59
4) Cc1ccc(Nc2cccc(-c3cnc4cc(-c5cnn(C)c5)ccn34)n2)cc1
8.25
5) CCN(CC)CCOc1ccc(Nc2cccc(-c3cnc4cc(-c5cnn(C)c5)ccn34)n2)cc1
9.06
6) Cn1cc(-c2ccn3c(-c4cccc(Nc5ccc(C#N)cc5)n4)cnc3c2)cn1
7.32
7) Cn1cc(-c2ccn3c(-c4cccc(Nc5ccc(Cl)cc5)n4)cnc3c2)cn1
7.64
8) Cn1cc(-c2ccn3c(-c4cccc(Nc5ccc(OC(F)(F)F)cc5)n4)cnc3c2)cn1
7.30
9) Cn1cc(-c2ccn3c(-c4cccc(Nc5ccc([N+](=O)[O-])cc5)n4)cnc3c2)cn1
8.28

----------
tested on: MOLM-14; test: Antiproliferative activity against human MOLM-14 cells harboring FLT3-D835Y mutant assessed as inhibition of cell growth incubated for 72 hrs by resazurin dye based assay; assay type: functional; details: MOLM-14, 72 h
pIC50: −log10 of the molar value.
Consider the reported pIC50 of an entry and match it to a band in class 0 = under 7, class 1 = from 7 up to 8, class 2 = 8 and over

1) Cc1ccc(-n2nc(C(C)(C)C)cc2Nc2cccc(-c3cnc4cc(-c5cnn(C)c5)ccn34)n2)cc1
class 0
2) Cn1cc(-c2ccn3c(-c4cccc(Nc5cc(C(C)(C)C)nn5-c5ccc(F)cc5)n4)cnc3c2)cn1
class 1
3) Cn1cc(-c2ccn3c(-c4cccc(Nc5ccc(S(C)(=O)=O)cc5)n4)cnc3c2)cn1
class 2
4) C=Cc1ccc(Nc2cccc(-c3cnc4cc(-c5cnn(C)c5)ccn34)n2)cc1
class 2
5) Cn1cc(-c2ccn3c(-c4cccc(Nc5ccc6c(c5)OCCO6)n4)cnc3c2)cn1
class 2
6) COc1cc(Nc2cccc(-c3cnc4cc(-c5ccc(S(C)(=O)=O)cc5)ccn34)n2)cc(OC)c1OC
class 1
7) Cn1cc(-c2ccn3c(-c4cccc(Nc5ccc(OCCN6CCCCC6)cc5)n4)cnc3c2)cn1
class 2
8) CC1CN(c2cccc(-c3cnc4cc(-c5cnn(C)c5)ccn34)n2)CCN1C(=O)OC(C)(C)C (centres undefined)
class 0

----------
Molecular target: Receptor-type tyrosine-protein kinase FLT3 (Homo sapiens, UniProt P36888)
Sequence (P36888 whole entry): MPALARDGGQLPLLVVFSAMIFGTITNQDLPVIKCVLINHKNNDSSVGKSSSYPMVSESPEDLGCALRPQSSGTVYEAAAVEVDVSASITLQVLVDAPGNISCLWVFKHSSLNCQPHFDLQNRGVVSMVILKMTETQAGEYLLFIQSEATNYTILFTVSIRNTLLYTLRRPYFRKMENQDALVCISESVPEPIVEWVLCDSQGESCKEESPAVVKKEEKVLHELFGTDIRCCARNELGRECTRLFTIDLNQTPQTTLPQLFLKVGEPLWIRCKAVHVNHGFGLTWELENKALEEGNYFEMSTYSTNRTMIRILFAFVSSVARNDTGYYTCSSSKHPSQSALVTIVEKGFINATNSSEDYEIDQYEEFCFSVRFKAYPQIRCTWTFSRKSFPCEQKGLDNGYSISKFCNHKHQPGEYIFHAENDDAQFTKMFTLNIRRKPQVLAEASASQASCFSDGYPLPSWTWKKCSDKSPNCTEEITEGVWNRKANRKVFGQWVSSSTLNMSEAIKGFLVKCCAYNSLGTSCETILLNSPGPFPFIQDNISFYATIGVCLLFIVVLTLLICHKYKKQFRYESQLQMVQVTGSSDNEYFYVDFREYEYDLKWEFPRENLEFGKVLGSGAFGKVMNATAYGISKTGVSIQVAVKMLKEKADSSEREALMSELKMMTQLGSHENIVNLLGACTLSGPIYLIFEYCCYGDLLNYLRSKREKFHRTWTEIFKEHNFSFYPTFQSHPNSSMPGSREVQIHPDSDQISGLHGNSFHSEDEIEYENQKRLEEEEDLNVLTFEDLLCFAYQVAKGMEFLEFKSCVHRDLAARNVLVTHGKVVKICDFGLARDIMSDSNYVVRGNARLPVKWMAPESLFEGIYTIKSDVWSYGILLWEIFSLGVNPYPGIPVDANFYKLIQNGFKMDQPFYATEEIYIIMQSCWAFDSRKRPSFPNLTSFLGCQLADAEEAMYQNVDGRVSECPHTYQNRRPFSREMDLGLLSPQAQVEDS
readoutKind: IC50

1) Cn1cc(-c2ccn3c(-c4cccc(Nc5ccc(S(C)(=O)=O)cc5)n4)cnc3c2)cn1
7.94 nM

----------
tested on: MOLM-14; experiment: Antiproliferative activity against human MOLM-14 cells harboring FLT3-D835Y mutant assessed as inhibition of cell growth incubated for 72 hrs by resazurin dye based assay; format: functional; details: MOLM-14, 72 h
pIC50: −log10 of the molar value.
pIC50 values by entry
readoutKind: pIC50

1) Cn1cc(-c2ccn3c(-c4cccc(NC5CCN(C(=O)OC(C)(C)C)CC5)n4)cnc3c2)cn1
7.74
2) COc1cc(Nc2cccc(-c3cnc4cc(-c5cnn(C)c5)ccn34)n2)cc(OC)c1OC
7.56
3) COc1ccc(Nc2cccc(-c3cnc4cc(-c5cnn(C)c5)ccn34)n2)cc1OC
8.33
4) Cn1nc(C(C)(C)C)cc1Nc1cccc(-c2cnc3cc(-c4ccc(S(C)(=O)=O)cc4)ccn23)n1
8.27
5) Cn1cc(-c2ccn3c(-c4cccc(Nc5ccccc5C(F)(F)F)n4)cnc3c2)cn1
9.51
6) CC(C)(C)c1ccc(Nc2cccc(-c3cnc4cc(-c5ccc(S(C)(=O)=O)cc5)ccn34)n2)cc1
6.69
7) Cn1cc(-c2ccn3c(-c4cccc(Nc5ccc(OCCN6CCOCC6)cc5)n4)cnc3c2)cn1
8.74
8) Cn1cc(-c2ccn3c(-c4cccc(Nc5ccc6c(c5)OCO6)n4)cnc3c2)cn1
8.31
